# target of assay: human Aurora A (Homo sapiens)
# Construct: Histidine tag (N); host or cells: Sf9 insect cells (baculovirus)
# Sequence (O14965 1-403): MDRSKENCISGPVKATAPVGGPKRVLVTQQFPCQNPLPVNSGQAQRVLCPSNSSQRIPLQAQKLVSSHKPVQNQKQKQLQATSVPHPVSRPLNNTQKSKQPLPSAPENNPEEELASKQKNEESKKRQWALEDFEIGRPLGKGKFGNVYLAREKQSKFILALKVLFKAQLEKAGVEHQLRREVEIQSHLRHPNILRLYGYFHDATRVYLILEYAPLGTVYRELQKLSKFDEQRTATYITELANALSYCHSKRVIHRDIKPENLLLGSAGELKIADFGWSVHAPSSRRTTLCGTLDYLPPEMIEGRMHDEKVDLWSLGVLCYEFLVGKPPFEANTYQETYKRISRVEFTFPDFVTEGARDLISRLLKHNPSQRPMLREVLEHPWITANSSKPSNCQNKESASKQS
# assay text: Aurora A kinase assay (DELFIA enzyme inhibition)
# Type: biochemical
# stated conditions: read-out: Aurora A IC50
Recorded IC50 for the following molecules

Recorded results for 2 molecules are shown here.
- molecule: "CN(CCO)CCOc1ccc(-c2oc(-c3c(F)cccc3F)nc2C(N)=O)cc1 [Example S-8]"
  IC50: "< 10 µM"
- molecule: "COc1ccc(-c2nc(-c3cccc(OC)c3)[nH]c2C(N)=O)cc1 [Example A-4]"
  IC50: "< 100 µM"

From here, focus on the item given below.
Q. Short answer please: IC50, human Aurora A (Homo sapiens), entry NC(=O)c1nc(Nc2ccc3cn[nH]c3c2)oc1-c1ccc(N2CCNCC2)cc1 [Example R-16]
A. < 10 µM

###

# target of assay: human Aurora A (Homo sapiens, UniProt O14965)
# Construct: Histidine tag (N); host or cells: Sf9 insect cells (baculovirus)
# assay text: Aurora A kinase assay (DELFIA enzyme inhibition)
# Format: biochemical
# stated conditions: read-out: Aurora A IC50
Recorded IC50 for the following compounds

Recorded results for 5 compounds are shown here.
- compound: "COc1ccc(Nc2oc(-c3c(F)cccc3F)nc2C(N)=O)cc1OC [Example Q-39]"
  target of assay: "human Aurora A (Homo sapiens, UniProt O14965)"
  IC50: "< 100 µM"
- compound: "COc1ccccc1Nc1nc(C(N)=O)c(-c2ccc(N3CCNCC3)cc2)o1 [Example R-11]"
  target of assay: "human Aurora A (Homo sapiens, UniProt O14965)"
  IC50: "< 10 µM"
- compound: "NC(=O)c1nc(-c2c(F)cccc2F)oc1Nc1ccc(C(=O)N2CCCCC2CO)cc1 (stereo not drawn) [Example U-14]"
  target of assay: "human Aurora A (Homo sapiens, UniProt O14965)"
  IC50: "< 10 µM"
- compound: "COc1ccc(-c2oc(-c3cccc(C(F)(F)F)c3F)nc2C(N)=O)cc1 [Example N-7]"
  target of assay: "human Aurora A (Homo sapiens, UniProt O14965)"
  IC50: "< 100 µM"
- compound: "CN1CCN(C(=O)Nc2ccc(Nc3oc(-c4c(F)cccc4F)nc3C(N)=O)cc2)CC1 [Example V-2]"
  target of assay: "human Aurora A (Homo sapiens, UniProt O14965)"
  IC50: "< 10 µM"

From here, focus on the item given below.
Q. Short answer please: IC50, human Aurora A (Homo sapiens, UniProt O14965), entry NC(=O)c1nc(-c2c(F)cccc2N2CCC(O)CC2)oc1-c1ccc(OCCN2CCC(O)CC2)cc1 [Example S-3]
A. < 100 µM
